- assayed.system: Estrogen receptor beta (Homo sapiens)
- Sequence (Q92731 whole entry): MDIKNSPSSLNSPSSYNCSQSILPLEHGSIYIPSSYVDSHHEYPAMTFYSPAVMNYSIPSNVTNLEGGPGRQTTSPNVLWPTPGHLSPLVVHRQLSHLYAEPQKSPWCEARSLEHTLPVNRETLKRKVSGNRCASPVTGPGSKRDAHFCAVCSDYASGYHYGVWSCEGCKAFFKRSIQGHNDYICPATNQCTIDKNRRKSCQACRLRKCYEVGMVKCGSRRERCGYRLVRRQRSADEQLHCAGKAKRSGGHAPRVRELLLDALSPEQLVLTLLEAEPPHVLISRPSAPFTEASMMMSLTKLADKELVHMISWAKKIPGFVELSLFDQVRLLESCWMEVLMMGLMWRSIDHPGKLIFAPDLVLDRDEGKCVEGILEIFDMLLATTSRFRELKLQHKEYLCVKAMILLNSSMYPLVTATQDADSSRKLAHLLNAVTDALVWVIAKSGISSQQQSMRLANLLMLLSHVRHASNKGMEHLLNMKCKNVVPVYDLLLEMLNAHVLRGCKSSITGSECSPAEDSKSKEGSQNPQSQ

molecule | value.qualifier | EC50 / nM
CO/C=C\[C@]12CC[C@H](O)CC1=CCC1C2CC[C@@]2(C)C1CC[C@@H]2O (stereo not given in full) | = | 188
CO/C=C/[C@]12CC[C@H](O)CC1=CCC1C2CC[C@@]2(C)C1CC[C@@H]2O (stereo not given in full) | = | 827
C[C@]12CCC3C(CC=C4C[C@@H](O)CC[C@@]43CO)C1CC[C@@H]2O (stereo not given in full) | > | 641
C=C[C@]12CCC(=O)C=C1CCC1C2CC[C@@]2(C)C1CC[C@@H]2O (stereo not given in full) | = | 379
C[C@]12CCC3C(CC=C4C[C@@H](O)CC[C@@]43/C=C\Br)C1CC[C@@H]2O (stereo not given in full) | = | 96

---

- assayed.system: UniProt:Q92731
Labelling: EC50 reported below 9 nM becomes MET; at or above becomes NOT MET.

compound | qualitative.label
C=C[C@]12CC[C@H](O)CC1=CCC1C2CC[C@@]2(C)C1CC[C@@H]2O (stereo not given in full) | MET
C[C@]12CCC3C(CC=C4C[C@@H](O)CC[C@@]43/C=C/F)C1CC[C@@H]2O (stereo not given in full) | MET
CC/C=C\[C@]12CC[C@H](O)CC1=CCC1C2CC[C@@]2(C)C1CC[C@@H]2O (stereo not given in full) | NOT MET
C[C@]12CCC3C(CC=C4C[C@@H](O)CC[C@@]43/C=C\F)C1CC[C@@H]2O (stereo not given in full) | MET
CC#C[C@]12CC[C@H](O)CC1=CCC1C2CC[C@@]2(C)C1CC[C@@H]2O (stereo not given in full) | NOT MET

---

- assayed.system: UniProt Q92731
property.label: EC50 (nM)

compound | assayed.system | value.qualifier | experimental.value
C#CC12CC[C@H](O)CC1=CCC1C2CC[C@@]2(C)C1CC[C@@H]2O (single isomer, unassigned) | UniProt Q92731 | = | 8
C[C@]12CCC3C(CC=C4C[C@@H](O)CC[C@@]43CC=O)C1CC[C@@H]2O (some centres undefined) | UniProt Q92731 | > | 1000
C#CC1(O)CCC2C3CC=C4C[C@@H](O)CC[C@]4(C=C)C3CC[C@@]21C (single isomer, unassigned) | UniProt Q92731 | = | 24
C#CC[C@]12CC[C@H](O)CC1=CCC1C2CC[C@@]2(C)C1CC[C@@H]2O (some centres undefined) | UniProt Q92731 | = | 153

---

pIC50: −log10 of the molar value.
pIC50, UniProt Q92731, per-entry values.
property.label: pIC50

compound | value.qualifier | experimental.value
C[C@]12CCC3C(CC=C4C[C@@H](O)CC[C@@]43/C=C/F)C1CC[C@@H]2O (some centres undefined) | = | 7.66
C[C@]12CCC3C(CC=C4C[C@@H](O)CC[C@@]43/C=C\F)C1CC[C@@H]2O (some centres undefined) | = | 7.60
C[C@]12CC[C@H]3[C@@H](CCC4=CC(=O)CC[C@@]43C)[C@@H]1CC[C@@H]2O | < | 5.00
C[C@]12CCC3C(CC=C4C[C@@H](O)CC[C@@]43/C=C\Br)C1CC[C@@H]2O (some centres undefined) | = | 6.67
CC[C@]12CC[C@H](O)CC1=CCC1C2CC[C@@]2(C)C1CC[C@@H]2O (some centres undefined) | = | 7.80
CO/C=C/[C@]12CC[C@H](O)CC1=CCC1C2CC[C@@]2(C)C1CC[C@@H]2O (some centres undefined) | = | 5.89
C[C@]12CCC3C(CC=C4C[C@@H](O)CC[C@@]43CC=O)C1CC[C@@H]2O (some centres undefined) | = | 5.79
CC/C=C\[C@]12CC[C@H](O)CC1=CCC1C2CC[C@@]2(C)C1CC[C@@H]2O (some centres undefined) | = | 6.44
C=CC[C@]12CC[C@H](O)CC1=CCC1C2CC[C@@]2(C)C1CC[C@@H]2O (some centres undefined) | = | 6.89
C[C@]12CCC3C(CC=C4C[C@@H](O)CC[C@@]43/C=C\Cl)C1CC[C@@H]2O (some centres undefined) | = | 7.08
C#CC12CC[C@H](O)CC1=CCC1C2CC[C@@]2(C)C1CC[C@@H]2O (single isomer, unassigned) | = | 7.77
C=C[C@]12CCC(=O)C=C1CCC1C2CC[C@@]2(C)C1CC[C@@H]2O (some centres undefined) | = | 6.11
CCC[C@]12CC[C@H](O)CC1=CCC1C2CC[C@@]2(C)C1CC[C@@H]2O (some centres undefined) | = | 6.88
C/C=C\[C@]12CC[C@H](O)CC1=CCC1C2CC[C@@]2(C)C1CC[C@@H]2O (some centres undefined) | = | 7.80
C[C@]12CCC3C(CC=C4C[C@@H](O)CC[C@@]43/C=C/Br)C1CC[C@@H]2O (some centres undefined) | = | 6.68
C=C[C@]12CC[C@H](O)CC1=CCC1C2CC[C@@]2(C)C1CC[C@@H]2O (some centres undefined) | = | 7.96
C#CC1(O)CCC2C3CC=C4C[C@@H](O)CC[C@]4(C=C)C3CC[C@@]21C (single isomer, unassigned) | = | 7.85
CC#C[C@]12CC[C@H](O)CC1=CCC1C2CC[C@@]2(C)C1CC[C@@H]2O (some centres undefined) | = | 6.42
CO/C=C\[C@]12CC[C@H](O)CC1=CCC1C2CC[C@@]2(C)C1CC[C@@H]2O (some centres undefined) | = | 6.52
